Entry source: the Immune Epitope Database (IEDB)

biological target: HLA-B*48:01; test: IEDB peptide-MHC binding, purified MHC/direct/fluorescence; filed as Kd, often an IC50 or EC50 that approximates it; bounds were set here for any values at or beyond the usual limits of such assays; details: source organism: Yellow fever virus
pKd: −log10 of the molar value.
quantity.kind: pKd

Given item TKDTNDNNL , the value recorded as its pKd is ≤ 4.70

* * *

target: HLA-B*44:03; assay: IEDB peptide-MHC binding, purified MHC/competitive/radioactivity; filed as Kd, often an IC50 or EC50 that approximates it; bounds were set here for any values at or beyond the usual limits of such assays; settings: source organism: Mammarenavirus machupoense
pKd: −log10 of the molar value.
quantity.kind: pKd

Here ADMSKLLNL was tested on HLA-B*44:03, and its pKd came to ≤ 4.29

* * *

target: HLA-A*02:12; assay: IEDB peptide-MHC binding, purified MHC/direct/fluorescence; filed as Kd, often an IC50 or EC50 that approximates it; bounds were set here for any values at or beyond the usual limits of such assays; settings: source organism: Yersinia enterocolitica subsp. enterocolitica 8081
quantity.kind: pKd
Bear in mind: pKd is minus log10 of a mol/L concentration; give just that figure.

pKd for HLA-A*02:12 with input TLLCGAATA equals 7.68

* * *

molecular target: HLA-A*01:01; test: IEDB peptide-MHC binding, purified MHC/competitive/radioactivity; filed as Kd, often an IC50 or EC50 that approximates it; bounds were set here for any values at or beyond the usual limits of such assays; conditions: source organism: Influenza A virus (A/Ann Arbor/6/1960(H2N2))
pKd: −log10 of the molar value.
quantity.kind: pKd

Looking up RQEMASRGLW , I see its pKd listed as ≤ 4.15

* * *

target: HLA-A*02:12; experiment: IEDB peptide-MHC binding, purified MHC/direct/fluorescence; filed as Kd, often an IC50 or EC50 that approximates it; bounds were set here for any values at or beyond the usual limits of such assays; details: source organism: Entamoeba histolytica HM-1:IMSS
pKd: −log10 of the molar value.
quantity.kind: pKd

# sequence FIILSTGKY ; its pKd = ≤ 4.70

* * *

target: HLA-C*03:03; experiment: IEDB peptide-MHC binding, purified MHC/direct/fluorescence; filed as Kd, often an IC50 or EC50 that approximates it; bounds were set here for any values at or beyond the usual limits of such assays; details: source organism: Escherichia coli str. K-12 substr. MG1655
quantity.kind: Kd (nM)
Your answer is read as nM, so omit the unit and give the number.

For this sequence ( AAAVAYPEL ), measured Kd is 2

* * *

molecular target: HLA-B*51:01; test: IEDB peptide-MHC binding, purified MHC/competitive/fluorescence; filed as Kd, often an IC50 or EC50 that approximates it; bounds were set here for any values at or beyond the usual limits of such assays; conditions: source organism: Vibrio antiquarius
pKd: −log10 of the molar value.
quantity.kind: pKd

Per the record, FDLFGITLY has pKd of ≤ 4.70

* * *

biological target: HLA-B*40:01; assay: IEDB peptide-MHC binding, purified MHC/direct/fluorescence; filed as Kd, often an IC50 or EC50 that approximates it; bounds were set here for any values at or beyond the usual limits of such assays; settings: source organism: Influenza A virus (A/tern/Australia/1/04(H2N5))
quantity.kind: Kd
Mention the unit after the number when you answer.

Input SETQGTEKL . Output Kd: 10.5 nM

* * *

target: HLA-A*01:01; experiment: IEDB peptide-MHC binding, purified MHC/competitive/radioactivity; filed as Kd, often an IC50 or EC50 that approximates it; bounds were set here for any values at or beyond the usual limits of such assays; settings: source organism: Dengue virus 3 Martinique/1243/1999
quantity.kind: pKd
FYI, pKd means -log10 of a concentration in mol per litre.

Note to self: pKd recorded for TSLTQKVVIF was 5.05

* * *

molecular target: HLA-A*69:01; assay: IEDB peptide-MHC binding, purified MHC/direct/fluorescence; filed as Kd, often an IC50 or EC50 that approximates it; bounds were set here for any values at or beyond the usual limits of such assays; conditions: source organism: Vibrio parahaemolyticus
pKd: −log10 of the molar value.
quantity.kind: pKd

sequence IRSCWRYRK , pKd observed: ≤ 4.70

* * *

target: HLA-B*54:01; assay: IEDB peptide-MHC binding, purified MHC/competitive/radioactivity; filed as Kd, often an IC50 or EC50 that approximates it; bounds were set here for any values at or beyond the usual limits of such assays; settings: source organism: Vaccinia virus Copenhagen
pKd: −log10 of the molar value.
quantity.kind: pKd

response.value for ILDDNLYKV (field: pKd) = ≤ 4.11

* * *

molecular target: HLA-B*44:02; test: IEDB peptide-MHC binding, purified MHC/competitive/radioactivity; filed as Kd, often an IC50 or EC50 that approximates it; bounds were set here for any values at or beyond the usual limits of such assays; conditions: source organism: Mammarenavirus brazilense
quantity.kind: Kd

sequence.record | quantity.kind | result.value
GERSRCYSL | Kd | ≥ 77.9 µM

Please look at the following sequence next.
Reported Kd ( FEEHLAPFMS ) = ≥ 47.4 µM

* * *

biological target: HLA-A*02:03; assay: IEDB peptide-MHC binding, purified MHC/competitive/radioactivity; filed as Kd, often an IC50 or EC50 that approximates it; bounds were set here for any values at or beyond the usual limits of such assays; details: source organism: Mammarenavirus juninense
pKd: −log10 of the molar value.
quantity.kind: pKd

So for YNFSLSAAV , the logged pKd turned out to be ≤ 4.11

* * *

target: HLA-A*26:03; test: IEDB peptide-MHC binding, purified MHC/direct/fluorescence; filed as Kd, often an IC50 or EC50 that approximates it; bounds were set here for any values at or beyond the usual limits of such assays; conditions: source organism: Vibrio parahaemolyticus AQ3810
quantity.kind: Kd (nM)
# output: bare number, implied unit nM

What the record says about QTWHGDAPY : Kd is 277

* * *

biological target: HLA-B*18:01; experiment: IEDB peptide-MHC binding, purified MHC/competitive/radioactivity; filed as Kd, often an IC50 or EC50 that approximates it; bounds were set here for any values at or beyond the usual limits of such assays; details: source organism: Mammarenavirus machupoense
pKd: −log10 of the molar value.
quantity.kind: pKd

pKd measured on ADMSKLLNL = ≤ 4.11

* * *

target: HLA-B*57:01; assay: IEDB peptide-MHC binding, purified MHC/direct/fluorescence; filed as Kd, often an IC50 or EC50 that approximates it; bounds were set here for any values at or beyond the usual limits of such assays; conditions: source organism: Cryptosporidium parvum
quantity.kind: pKd
FYI, pKd means -log10 of a concentration in mol per litre.

The recorded pKd for entry KACPPGFVF equals 5.60

* * *

molecular target: HLA-B*40:01; assay: IEDB peptide-MHC binding, purified MHC/direct/fluorescence; filed as Kd, often an IC50 or EC50 that approximates it; bounds were set here for any values at or beyond the usual limits of such assays; conditions: source organism: Influenza A virus (A/Duck/Shantou/1881/00(H9N2))
quantity.kind: Kd

Record SLPPNFSSL ; system HLA-B*40:01; Kd = ≥ 20 µM

* * *

biological target: HLA-A*24:02; experiment: IEDB peptide-MHC binding, purified MHC/direct/fluorescence; filed as Kd, often an IC50 or EC50 that approximates it; bounds were set here for any values at or beyond the usual limits of such assays; conditions: source organism: Clostridium botulinum
quantity.kind: Kd

Noted for RVYINVVVK : its Kd reads ≥ 20 µM

* * *

target: HLA-A*29:02; experiment: IEDB peptide-MHC binding, purified MHC/direct/fluorescence; filed as Kd, often an IC50 or EC50 that approximates it; bounds were set here for any values at or beyond the usual limits of such assays; details: source organism: Influenza A virus (A/Memphis/1/1986(H3N2))
quantity.kind: Kd

Query NHDGIQAGV yields Kd of ≥ 20 µM

* * *

target: HLA-B*15:01; assay: IEDB peptide-MHC binding, purified MHC/competitive/fluorescence; filed as Kd, often an IC50 or EC50 that approximates it; bounds were set here for any values at or beyond the usual limits of such assays; conditions: source organism: Orthomarburgvirus marburgense
pKd: −log10 of the molar value.
quantity.kind: pKd

pKd measured on IHLDKGGQF = ≤ 4.70

* * *

target: HLA-A*31:01; assay: IEDB peptide-MHC binding, purified MHC/direct/fluorescence; filed as Kd, often an IC50 or EC50 that approximates it; bounds were set here for any values at or beyond the usual limits of such assays; conditions: source organism: Rickettsia prowazekii
quantity.kind: Kd

Known value: HLA-A*31:01 Kd of the sequence IYSAEFKNY equals ≥ 20 µM

* * *

target: HLA-B*18:01; assay: IEDB peptide-MHC binding, purified MHC/direct/fluorescence; filed as Kd, often an IC50 or EC50 that approximates it; bounds were set here for any values at or beyond the usual limits of such assays; settings: source organism: Influenza A virus (A/whooper swan/Mongolia/6/05(H5N1))
quantity.kind: Kd

For SSDDFALIV on HLA-B*18:01, measured Kd was ≥ 20 µM
